system: HT29 cells; assay: Western blot protein expression; type: cell-based; settings: HT29, IC50, 72 h, representative blot Figure S28A
Lab note: anything with β-actin/GAPDH normalized to control (1) at or over 0.5 counts as YES; the rest go in NO.

Use these answered entries as a reference point.
>>> answer_label("Cc1cc2cccnc2c2ncccc12.N[C@H]1CCCC[C@@H]1N.O=[N+]([O-])[O-].O=[N+]([O-])[O-].[OH][Pt+2][OH] [Pt^IV5MESS(OH)2]")
"NO"
>>> answer_label("Cc1cc2cccnc2c2ncccc12.N[C@H]1CCCC[C@@H]1N.O=[N+]([O-])[O-].O=[N+]([O-])[O-].[Pt+2] [Pt^II5MESS]")
"NO"
>>> answer_label("N.N.[Cl][Pt][Cl] [Cisplatin, cisplatin]")
"YES"

Confirm if β-actin/GAPDH normalized to control (1) reported for the compound N[C@H]1CCCC[C@@H]1N.O=[N+]([O-])[O-].O=[N+]([O-])[O-].[OH-].[OH-].[Pt+4].c1cnc2c(c1)ccc1cccnc12 is 0.5 or above.
YES

Hi team, for N[C@H]1CCCC[C@@H]1N.O=[N+]([O-])[O-].O=[N+]([O-])[O-].[Pt+2].c1cnc2c(c1)ccc1cccnc12 , is the recorded β-actin/GAPDH normalized to control (1) at or above 0.5?
NO

Hi, just wondering whether Cc1c(C)c2cccnc2c2ncccc12.N[C@H]1CCCC[C@@H]1N.O=[N+]([O-])[O-].O=[N+]([O-])[O-].[OH][Pt+2][OH] [Pt^IV56MESS(OH)2] shows β-actin/GAPDH normalized to control (1) of 0.5 or higher.
YES
